Molecular target: human V1a receptor (Homo sapiens)
Construct: expressed in transfected cells; host or cells: CHO K1 (Chinese hamster ovary), also stably transfected with modified aequorin
Sequence (P37288 whole entry): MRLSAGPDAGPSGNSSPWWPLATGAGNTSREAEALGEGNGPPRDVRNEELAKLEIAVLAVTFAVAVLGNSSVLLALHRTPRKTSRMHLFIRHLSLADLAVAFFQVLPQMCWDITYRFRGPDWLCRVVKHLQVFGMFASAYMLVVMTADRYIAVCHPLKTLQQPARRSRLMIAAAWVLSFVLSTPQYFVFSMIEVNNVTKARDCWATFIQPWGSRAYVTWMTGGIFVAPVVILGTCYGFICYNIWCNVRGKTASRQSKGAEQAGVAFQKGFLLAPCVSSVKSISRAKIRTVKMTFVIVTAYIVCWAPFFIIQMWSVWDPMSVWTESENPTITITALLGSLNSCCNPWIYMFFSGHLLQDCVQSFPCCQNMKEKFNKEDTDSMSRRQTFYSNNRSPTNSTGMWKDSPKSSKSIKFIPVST
Assay: Cellular in vitro assay for determining vasopressin receptor activity (V1a cell line, aequorin luminescence)
Type: cell-based
Conditions: ratio of cellular IC50 values, human V2 over human V1a
READOUT TYPE: ratio IC50 hV2/hV1a
Hey, just send me the number, nothing else.

Please review the following examples before continuing.
COMPOUND: Cc1cccc(C)c1-n1nc(Cn2nc(-c3ccc(Cl)cc3)n(C[C@H](O)C(F)(F)F)c2=O)nc1C(N)=O [Example 23]
STUDY SYSTEM: human V1a receptor (Homo sapiens)
MEASURED VALUE: 1.0
//
COMPOUND: Cc1cccnc1-n1nc(Cn2nc(-c3ccc(Cl)cc3)n(C[C@H](O)C(F)(F)F)c2=O)nc1C(N)=O [Example 2]
STUDY SYSTEM: human V1a receptor (Homo sapiens)
MEASURED VALUE: 4.5
//
COMPOUND: NC(=O)c1nc(Cn2nc(-c3ccc(Cl)cc3)n(C[C@H](O)C(F)(F)F)c2=O)nn1-c1ccc(F)cc1Cl [Example 26]
STUDY SYSTEM: human V1a receptor (Homo sapiens)
MEASURED VALUE: 4.9
//
COMPOUND: COc1cccnc1-n1nc(Cn2nc(-c3ccc(Cl)cc3)n(C[C@H](O)C(F)(F)F)c2=O)nc1C(N)=O [Example 4]
STUDY SYSTEM: human V1a receptor (Homo sapiens)
MEASURED VALUE: 3.8
//
COMPOUND: NC(=O)c1nc(Cn2nc(-c3ccc(Cl)cc3)n(C[C@H](O)C(F)(F)F)c2=O)nn1-c1c(F)cccc1Cl [Example 21]
STUDY SYSTEM: human V1a receptor (Homo sapiens)
MEASURED VALUE: 7.0

Item: NC(=O)c1nc(Cn2nc(-c3ccc(Cl)cc3)n(C[C@H](O)C(F)(F)F)c2=O)nn1-c1ncccn1 [Example 16] | ratio IC50 hV2/hV1a: 3.3

Item: NC(=O)c1nc(Cn2nc(-c3ccc(Cl)cc3)n(C[C@H](O)C(F)(F)F)c2=O)nn1-c1ccccn1 [Example 11] | ratio IC50 hV2/hV1a: 1.3

Item: NC(=O)c1nc(Cn2nc(-c3ccc(Cl)cc3)n(C[C@H](O)C(F)(F)F)c2=O)nn1-c1ncccc1F [Example 5] | ratio IC50 hV2/hV1a: 2.6

Item: Cc1ccnc(Cl)c1-n1nc(Cn2nc(-c3ccc(Cl)cc3)n(C[C@H](O)C(F)(F)F)c2=O)nc1C(N)=O [Example 12] | ratio IC50 hV2/hV1a: 1.2

Item: NC(=O)c1nc(Cn2nc(-c3ccc(Cl)cc3)n(C[C@H](O)C(F)(F)F)c2=O)nn1-c1ccncc1Cl [Example 6] | ratio IC50 hV2/hV1a: 14.4

Data origin, for the record: patent US20190119251A1
